Recorded values, source the supplement of paper PMC8149375.

Test system: TK-10
Assay: GI50, drug alone; higher = less potent
Details: treatment: drug alone; 5 days
Lab note: anything with GI50, drug alone below 800 nM is marked True; values at 800 nM or higher are marked False.

molecule	subject-of-test	category
CC[C@@H]1C(=O)N(C)c2cnc(Nc3ccc(C(=O)N[C@H]4CC[C@H](N5CCN(CC6CC6)CC5)CC4)cc3OC)nc2N1C(C)C	TK-10	True
CC1(COc2ccc3c(c2)ncn3-c2ccc3cccc(N4CCC(N)CC4)c3n2)COC1	TK-10	False
Cn1cnc2c(F)c(Nc3ccc(Br)cc3Cl)c(C(=O)NOCCO)cc21 [AZD6244 (Selumetinib)]	TK-10	False
CNC(=O)Nc1ccc(-c2nc(N3CC4CCC(C3)O4)c3cnn(C4CCC5(CC4)OCCO5)c3n2)cc1	TK-10	True
Cc1cnc(Nc2ccc(OCCN3CCCC3)cc2)nc1Nc1cccc(S(=O)(=O)NC(C)(C)C)c1	TK-10	True
COC(=O)c1ccc2c(c1)NC(=O)/C2=C(\Nc1ccc(N(C)C(=O)CN2CCN(C)CC2)cc1)c1ccccc1	TK-10	False
C=CCc1cccc(/C=N/NC(=O)CN2CCN(Cc3ccccc3)CC2)c1O	TK-10	False
CCC(=O)N1CCN(c2ccc(-n3c(=O)ccc4cnc5ccc(-c6cnc7ccccc7c6)cc5c43)cc2C(F)(F)F)CC1	TK-10	False
CCc1cnn2c(NCc3ccc[n+]([O-])c3)cc(N3CCCC[C@H]3CCO)nc12	TK-10	True
COc1ccc2c(c1OC)N=C(NC(=O)c1cccnc1)N1CCN=C21	TK-10	False
O=c1sn(-c2cccc3ccccc23)c(=O)n1Cc1ccccc1	TK-10	False
Cc1cc(C)c(/C=C2\C(=O)Nc3ccccc32)[nH]1 [Semaxanib (SU5416)]	TK-10	False
O=C(NOC[C@H](O)CO)c1ccc(F)c(F)c1Nc1ccc(I)cc1F	TK-10	False
Cc1cccc(-c2nc(C(C)(C)C)[nH]c2-c2ccc3nccnc3c2)n1	TK-10	False
Cc1cc(C(=O)NOCCO)c(Nc2ccc(I)cc2F)n(C)c1=O	TK-10	True
c1cncc(CN2CCC(n3ncc4c(N5CCOCC5)nc(-c5ccc6[nH]ccc6c5)nc43)CC2)c1	TK-10	True
FC(F)(F)c1ccc(/C=C/c2nc(COc3ccc(CCCCn4ccnn4)cc3)co2)cc1	TK-10	True
CNC(=O)c1c(F)cccc1Nc1nc(Nc2cc3c(cc2OC)CCN3C(=O)CN(C)C)nc2[nH]ccc12	TK-10	False
COc1cc(Nc2ncc(F)c(Nc3ccc4c(n3)NC(=O)C(C)(C)O4)n2)cc(OC)c1OC [R406(free base)]	TK-10	False
COc1cc2c(Oc3ccc4[nH]c(C)cc4c3F)ncnc2cc1OCCCN1CCCC1	TK-10	False
CCn1nnc2c(N3CCOCC3)nc(-c3ccc(NC(=O)Nc4ccc(C(=O)N5CCN(C)CC5)cc4)cc3)nc21	TK-10	True

====

Test system: ACHN
Test: GI50, drug alone; higher = less potent
Conditions: treatment: drug alone; 5 days
Reported GI50, drug alone values for a set of molecules
measurement-type: GI50, drug alone

molecule	measured
CC1(C)CNc2cc(NC(=O)c3cccnc3NCc3ccncc3)ccc21.O=P(O)(O)O.O=P(O)(O)O [Motesanib Diphosphate]	> 10 µM
CCCNC(=O)Nc1ccc(Oc2ncnc3cc(OC)c(OC)cc23)cc1Cl	> 10 µM
Cc1ccc(-n2nc(C(C)(C)C)cc2NC(=O)Nc2ccc(OCCN3CCOCC3)c3ccccc23)cc1	> 10 µM
CS(=O)(=O)O.Cc1ccc(NC(=O)c2ccc(CN3CCN(C)CC3)cc2)cc1Nc1nccc(-c2cccnc2)n1 [Imatinib Mesylate]	> 10 µM
C=CCc1cccc(/C=N/NC(=O)CN2CCN(Cc3ccccc3)CC2)c1O	0.74 µM
Cc1nc(N)sc1-c1ccnc(Nc2ccc(N3CCOCC3)cc2)n1	0.975 µM
COCCOc1ccc2c(c1)ncn2-c1ccc2cccc(N3CCC(N)CC3)c2n1	2.48 µM
OCCn1cc(-c2cnc3nnn(Cc4ccc5ncccc5c4)c3n2)cn1	> 10 µM
